- ASSAY_COMMENT: Binding affinity to gp41 in HIV1 by fluorescence analysis
- Parameters: species or system Human immunodeficiency virus 1
READOUT: Ki (nM)

Past entries and their recorded results:
| RECORD_SMILES | UNIT_OF_MEASUREMENT | Ki |
| --- | --- | --- |
| O=C(O)c1cccc(N/N=C2\C(=O)N(c3nc(-c4ccccc4)cs3)N=C2c2ccccc2)c1 | nM | 200 |
| Cc1cccc(NC(=O)CN2C(=O)N/C(=C/c3cccn3-c3cccc(C(=O)O)c3)C2=O)c1 | nM | 4450 |
| CCc1nc2nc(CSc3nnc(NC(=O)COc4ccc(C)c(C)c4)s3)cc(O)n2n1 | nM | 2550 |
| O=C(CN1C(=O)N/C(=C/c2ccccc2OCc2ccc(C(=O)O)cc2)C1=O)Nc1ccccc1 | nM | 7100 |

[a] COc1ccc(C(=O)Oc2ccc(Br)cc2/C=N/N=C2\NC(=O)[C@H](CC(=O)O)S2)cc1
[b] Cc1ccc(-c2nc(SCC(=O)Nc3ccc(C)c(C)c3)n3[nH]c(=O)cc3n2)cc1
[c] Cc1ccc(OCCn2cc(/C=C/C(=O)O)c3ccccc32)cc1
# rank by Ki, ascending (min first) Write out the labels following the order that was asked for.
b, a, c
(b: 460 nM, a: 1600 nM, c: 13000 nM)

====

Parameter: CC50. Scope: all listed entries.
- ASSAY_COMMENT: Cytotoxicity against human MAGI-CCR5 cells assessed as cell viability by MTS assay
- Format: cell-based

| RECORD_SMILES | CC50 |
| --- | --- |
| O=C(CN1C(=O)N/C(=C/c2ccccc2OCc2ccc(C(=O)O)cc2)C1=O)Nc1ccccc1 | > 50 µM |
| CCc1nc2nc(CSc3nnc(NC(=O)COc4ccc(C)c(C)c4)s3)cc(O)n2n1 | > 50 µM |
| Cc1ccc(-c2nc(SCC(=O)Nc3ccc(C)c(C)c3)n3[nH]c(=O)cc3n2)cc1 | > 50 µM |
| COc1ccc(C(=O)Oc2ccc(Br)cc2/C=N/N=C2\NC(=O)[C@H](CC(=O)O)S2)cc1 | 208 µM |
| Cc1ccc(OCCn2cc(/C=C/C(=O)O)c3ccccc32)cc1 | > 50 µM |

# return recorded CC50 for input "Cc1cccc(NC(=O)CN2C(=O)N/C(=C/c3cccn3-c3cccc(C(=O)O)c3)C2=O)c1"
> 100 µM

Note down CC50 recorded for "O=C(O)c1cccc(N/N=C2\C(=O)N(c3nc(-c4ccccc4)cs3)N=C2c2ccccc2)c1"
53 µM
